molecular target: Human α4β2 (Homo sapiens, UniProt P17787+P43681); construct: host or cells: SH-EP1; assay: Competition binding to human α4β2 receptors in membranes of SH-EP1/human α4β2 cells ([3H]-nicotine); conditions: membrane competition binding, read-out: Human α4β2 Ki
Catalogue of Ki values
# output: bare number, implied unit nM

The following compounds have reported results that may help.
* O=C(C1CCOC1)N1CC2CC(C1)N2 (stereo not shown) | 270
* O=C([C@H]1C[C@H]1F)N1CC2CC(C1)N2 [drawing 163] | 1.1
* O=C([C@H]1CCCO1)N1C2CNCC1C2 | 390
* C[C@H]1C[C@@H]1C(=O)N1C2CNCC1C2 | 210
* O=C(N1CC2CC(C1)N2)C1(C(F)(F)F)CCC1 | 6300
* O=C(CCC(F)(F)F)N1C2CNCC1C2 | 180
* O=C([C@@H]1C[C@H]2C=C[C@H]1C2)N1C2CNCC1C2 | 300
* CCC1(CC)CC1C(=O)N1C2CNCC1C2 (stereo not shown) | 850

Field Ki (entry COCC(=O)N1C2CNCC1C2 ) reads 410

Field Ki (entry C[C@@H]1C[C@@H]1C(=O)N1C2CNCC1C2 ) reads 820

Field Ki (entry O=C(COCc1ccccc1)N1C2CNCC1C2 ) reads 1400

Field Ki (entry O=C(Cc1c[nH]c2ccccc12)N1C2CNCC1C2 ) reads 2200

====

biological target: Rat α4β2 (Rattus norvegicus, UniProt P09483+P12390); construct: Rat cortices were obtained from Analytical Biological Services; tissue Analytical Biological Services, Incorporated (ABS, Wilmington, Del.); host or cells: rat cortex (female Sprague-Dawley); assay: Competition binding to rat α4β2 receptors in rat cortical membranes; settings: Rat α4β2 Ki, rat cortex membranes
recorded_metric: Ki (nM)
# output: bare number, implied unit nM

The following compounds have reported results that may help.
* CC1CC(C(=O)N2CC3CC(C2)N3)C1 (centres unmarked) | 22
* O=C([C@H]1C[C@@H]1F)N1CC2CC(C1)N2 [drawing 165] | 1.6
* C/C=C/CCC(=O)N1CC2CC(C1)N2 | 25
* O=C(CC1CC1)N1C2CNCC1C2 | 27

Field Ki (entry O=C([C@@H]1C[C@H]1c1ccccc1)N1CC2CC(C1)N2 ) reads 4.4

Field Ki (entry C[C@H]1C[C@H]1C(=O)N1CC2CC(C1)N2 ) reads 0.39

====

biological target: Rat α4β2 (Rattus norvegicus, UniProt P09483+P12390); construct: Rat cortices were obtained from Analytical Biological Services; tissue Analytical Biological Services, Incorporated (ABS, Wilmington, Del.); host or cells: rat cortex (female Sprague-Dawley); assay: Competition binding to rat α4β2 receptors in rat cortical membranes; conditions: read-out: Rat α4β2 Ki, rat cortex membranes
recorded_metric: pKi
# pKi = -log10(concentration in molar units)

Field pKi (entry O=C(c1occc1Cl)N1CC2CC(C1)N2 ) reads 7.25

====

target: α6β3β4α5 (Homo sapiens, UniProt P30926+Q15825); construct: host or cells: SH-EP1; experiment: Competition binding to α6β3β4α5 receptors in membranes of SH-EP1/α6β3β4α5 cells ([3H]-epibatidine); details: membrane competition binding, read-out: α6β3β4α5 Ki
Catalogue of Ki values

* CCC1(CC)CC1C(=O)N1CC2CC(C1)N2 (stereo not shown) | 470 nM
* O=C(C1C2C3CCC(C3)C12)N1CC2CC(C1)N2 (stereo not shown) | 22000 nM
* C[C@@H]1C(C(=O)N2C3CNCC2C3)[C@@H]1C (stereo partly shown) | 2400 nM
* O=C(C1C2C3CCC(C3)C12)N1C2CNCC1C2 (stereo not shown) | 100000 nM
* O=C(C1C2CCCCC21)N1C2CNCC1C2 (stereo not shown) | 6400 nM

Field Ki (entry CC1(C)CC1C(=O)N1C2CNCC1C2 (stereo not shown) ) reads 800 nM

Field Ki (entry CCC1(CC)CC1C(=O)N1C2CNCC1C2 (stereo not shown) ) reads 4400 nM

Field Ki (entry O=C(C1CC(F)(F)C1)N1C2CNCC1C2 ) reads 510 nM

Field Ki (entry CC1(C)C(C(=O)N2CC3CC(C2)N3)C1(C)C ) reads 480 nM

Field Ki (entry CCC[C@H]1C[C@H]1C(=O)N1C2CNCC1C2 ) reads 1100 nM

Field Ki (entry O=C(C1CC(F)(F)C1)N1CC2CC(C1)N2 ) reads 370 nM
